- tested_system: Estrogen receptor beta (Homo sapiens)
- assay_method_text: qHTS assay to identify small molecule antagonists of the estrogen receptor beta (ER-beta) signaling pathway (AID 1259378)
- measurement_parameters: ER-beta-UAS-bla HEK293T, beta-lactamase FRET ratio, 16 h; series mostly up to 92.4 µM
Inconclusive results are not listed. Active and inactive are the calls of the source. Calls follow the shape of the dose curve; as a rule, active = well fitted inhibition curve with a large enough effect in the signal ratio in the repeat runs (not every such curve was filed as active); inconclusive = weak or mixed curves, or effect the other way; inactive = no such curve, though single readings can be large or run the other way; the % refers to the signal ratio.
Select the correct class. Options are active, inactive and nothing else.

{"columns": ["molecule", "class_assignment"],
 "data": [
  ["Cc1c(C)c2c(c(C)c1OC(=O)CCC(=O)OCCO)CC[C@@](C)(CCC[C@H](C)CCC[C@H](C)CCCC(C)C)O2", "active"],
  ["O=Cc1c2ccccc2c(Cl)c2ccccc12", "inactive"],
  ["CC1CC(OC(=O)C(O)c2ccccc2)CC(C)(C)N1C (centres undefined)", "inactive"],
  ["C=C1CCC2CC1C2(C)C (centres undefined)", "inactive"],
  ["OC(CCN1CCCC1)(c1ccccc1)C1CCCCC1 (centres undefined)", "inactive"]
]}

-- ask Look up the recorded call for "O=C(/C=C/c1ccccc1)OCCc1ccccc1" in this test.
-- reply inactive

-- ask Look up the recorded call for "C1COC1" in this test.
-- reply inactive

-- ask Look up the recorded call for "CC[N+](CC)(CCNC(=O)C(=O)NCC[N+](CC)(CC)Cc1ccccc1Cl)Cc1ccccc1Cl" in this test.
-- reply inactive

-- ask Look up the recorded call for CN1CCCC(CC2c3ccccc3Sc3ccccc32)C1 (centres undefined) in this test.
-- reply active

-- ask Look up the recorded call for "Cc1[nH]cnc1CN1CCc2c(c3ccccc3n2C)C1=O" in this test.
-- reply inactive

-- ask Look up the recorded call for "O=c1[nH]c2ccc(Cl)cc2o1" in this test.
-- reply inactive

-- ask Look up the recorded call for "C=CC(=O)[O-].C=CC(=O)[O-].[Zn+2]" in this test.
-- reply inactive

-- ask Look up the recorded call for "CCCCCCCC/C=C\CCCCCCCCO" in this test.
-- reply inactive

-- ask Look up the recorded call for "O=C1Cc2cc(Cl)ccc2N1" in this test.
-- reply inactive

-- ask Look up the recorded call for "O=C1c2ccccc2C(=O)C1c1ccc(Br)cc1" in this test.
-- reply inactive

-- ask Look up the recorded call for "COc1ncnc(NS(=O)(=O)c2ccc(N)cc2)c1OC" in this test.
-- reply inactive

-- ask Look up the recorded call for "O=C1CCCCCCCCCCOCCCCO1" in this test.
-- reply inactive

-- ask Look up the recorded call for "C=C1c2cccc(O)c2C(O)=C2C(=O)[C@]3(O)C(O)=C(C(N)=O)C(=O)[C@@H](N(C)C)[C@@H]3[C@@H](O)[C@H]12" in this test.
-- reply inactive

-- ask Look up the recorded call for "CC1=C(CC=O)C(C)(C)CCC1" in this test.
-- reply inactive

-- ask Look up the recorded call for "C[C@H]1C[C@H](O)c2ccsc2S1(=O)=O" in this test.
-- reply inactive

---

- assay_method_text: qHTS assay to identify aromatase inhibitors - cell viability counter screen (AID 743084);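 also: cells stimulated with testosterone during compound exposure; nearly all actives have a fitted effect of over 55% in size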
- measurement_parameters: MCF-7 aro ERE viability, CellTiter-Fluor, 24 h; series mostly up to 70.3 µM
Records with an inconclusive call do not appear. Calls of active or inactive are those of the source. The call rests on the fitted dose curve; in most records, active means well fitted cell-killing curve with a large enough effect in the repeat runs; inconclusive means weak or mixed curves, or effect the other way; inactive means no such curve, though single readings can be large or run the other way.
Select the correct class. Options are active, inactive and nothing else.

# count of solved cases: 10
{"columns": ["compound", "class_assignment"],
 "data": [
  ["CN1CCCC(CC2c3ccccc3Sc3ccccc32)C1 (stereo unspecified)", "inactive"],
  ["CCCCCCCCCCC(=O)O", "inactive"],
  ["CCCCCCC(C)(C)C(=O)O", "inactive"],
  ["C=C1C[C@@]23CC[C@H]4[C@@](C)(CCC[C@@]4(C)C(=O)O[C@@H]4O[C@H](CO)[C@@H](O)[C@H](O)[C@H]4O)[C@@H]2CC[C@]1(O[C@@H]1O[C@H](CO)[C@@H](O)[C@H](O[C@@H]2O[C@H](CO)[C@@H](O)[C@H](O)[C@H]2O)[C@H]1O[C@@H]1O[C@H](CO)[C@@H](O)[C@H](O)[C@H]1O)C3", "inactive"],
  ["Nc1ccc(N=Nc2ccccc2)c(N)c1", "active"],
  ["CCC=CC#N", "inactive"],
  ["CC(C)C=O", "inactive"],
  ["CCOC(=O)OC(C)OC(=O)[C@@H]1N2C(=O)[C@@H](NC(=O)[C@H](N)c3ccccc3)[C@H]2SC1(C)C (stereo partly specified)", "inactive"],
  ["Clc1cc(Cl)nc(Cl)n1", "inactive"],
  ["O=C1c2ccccc2C(=O)c2c(O)c(O)cc(O)c21", "active"]
]}

-- ask Look up the recorded call for "COc1ccccc1N1CCN(CCCCNC(=O)c2ccc(-c3ccc(C(C)=O)cc3)cc2)CC1" in this test.
-- reply inactive

-- ask Look up the recorded call for "OCCOCC#CCOCCO" in this test.
-- reply inactive

-- ask Look up the recorded call for "O[C@@H]1CO[C@H]2[C@@H]1OC[C@@H]2O" in this test.
-- reply inactive

-- ask Look up the recorded call for "COC(=O)CS" in this test.
-- reply inactive

---

- assay_method_text: qHTS assay to identify small molecule antagonists of the sonic hedgehog signaling (Shh) pathway (AID 1259369); also: nearly all actives have a fitted effect of over 45% in size
- measurement_parameters: NIH/3T3 Gli1-Luc reporter, Shh antagonist, luminescence 24 h; series mostly up to 92.4 µM
- Excerpt: U.S. Tox21 Program National Center for Advancing Translational Sciences [NCATS] NIH Chemical Genomics Center [NCGC] U.S. Environmental Protection Agency [EPA] National Institutes of Environmental Health Sciences [NIEHS] National Toxicology Program [NTP] U.S. Food and Drug Administration [FDA] Tox21 Assay Overview: The sonic hedgehog (Shh) pathway is essential for normal embryonic development. Dysregulation of the Shh pathway can cause severe developmental defects in organs. […]
Inconclusive results are not listed. The source made the active and inactive calls. Calls come from the whole dose curve.
Select the correct class. Options are active, inactive and nothing else.

# count of solved cases: 2
{"columns": ["molecule", "class_assignment"],
 "data": [
  ["CCOC(=O)c1ccccc1C(=C1C=C(Br)C(=O)C(Br)=C1)c1cc(Br)c(O)c(Br)c1", "inactive"],
  ["N#CCCN(CCO)CCO", "inactive"]
]}

-- ask Look up the recorded call for C=C1CCC2CC1C2(C)C (stereo not drawn) in this test.
-- reply inactive

-- ask Look up the recorded call for "CC[N+](CC)(CCNC(=O)C(=O)NCC[N+](CC)(CC)Cc1ccccc1Cl)Cc1ccccc1Cl" in this test.
-- reply inactive

-- ask Look up the recorded call for OC(CCN1CCCC1)(c1ccccc1)C1CCCCC1 (stereo not drawn) in this test.
-- reply active

-- ask Look up the recorded call for CN1CCCC(CC2c3ccccc3Sc3ccccc32)C1 (stereo not drawn) in this test.
-- reply active

-- ask Look up the recorded call for "CN1C(C(=O)Nc2ccccn2)=C(O)c2sccc2S1(=O)=O" in this test.
-- reply inactive

-- ask Look up the recorded call for CN1C(=O)N(c2ccccc2Br)Cc2cnc(Nc3ccc4c(c3)OCC(CO)O4)nc21 (stereo not drawn) in this test.
-- reply active

-- ask Look up the recorded call for "Oc1ccc(Cl)c2cccnc12" in this test.
-- reply active

-- ask Look up the recorded call for "O=C(CCCN1CC=C(n2c(=O)[nH]c3ccccc32)CC1)c1ccc(F)cc1" in this test.
-- reply inactive

-- ask Look up the recorded call for "CCOC(=O)c1ccc(O)c(O)c1" in this test.
-- reply active

-- ask Look up the recorded call for "Clc1cc(Cl)nc(Cl)n1" in this test.
-- reply inactive

---

- assay_method_text: qHTS RealTime-Glo MT Cell Viability Assay in HepG2 cells - 24 hour (AID 1224867); also: nearly all actives have a fitted effect of over 50% in size
- measurement_parameters: RealTime-Glo luminescence; series mostly up to 76.8 µM
- Text: U.S. Tox21 Program National Center for Advancing Translational Sciences [NCATS] NIH Chemical Genomics Center [NCGC] U.S. Environmental Protection Agency [EPA] National Institutes of Environmental Health Sciences [NIEHS] National Toxicology Program [NTP] U.S. Food and Drug Administration [FDA] Tox21 Assay Overview: Measure of cell viability is critical in the cell-base assay. Analysis of cell viability is necessary for the characterization of cell responses to cytotoxic drugs and environmental stress. […]
Inconclusive results are not listed. Calls of active or inactive are those of the source. Calls come from the whole dose curve; as a rule, active = well fitted cell-killing curve with a large enough effect in the repeat runs; inconclusive = weak or mixed curves; inactive = flat fitted curve, though single readings scatter.
Select the correct class. Options are 1 for active, 0 for inactive and nothing else.

# count of solved cases: 5
{"columns": ["molecule", "class_assignment"],
 "data": [
  ["COc1ccc(OC(=O)N(CC(=O)O)Cc2ccc(OCCc3nc(-c4ccccc4)oc3C)cc2)cc1", 0],
  ["CNC(=O)c1cnn(-c2nc(N)c3ncn([C@@H]4O[C@H](CO)[C@@H](O)[C@H]4O)c3n2)c1", 0],
  ["CN1CCCC(CC2c3ccccc3Sc3ccccc32)C1 (stereo unspecified)", 1],
  ["CC(CCC(=O)O)C(=O)O (stereo unspecified)", 0],
  ["CCc1ccccc1", 0]
]}

Moving on to another molecule below.
-- ask Look up the recorded call for "O=C1NCCN1CCO" in this test.
-- reply 0
